STUDY_SYSTEM: HLA-A*0101 (Homo sapiens, UniProt P04439, A114D/A174V/A182V/D101N/D185E/E176A/E190D/L180R/Q94H/R68K/S129P/T187R/V100A/V91M/W191G)
ASSAY_REMARKS: biochemical
Type: binding
CONDITION_DETAILS: allele A*0101; fluorescence polarization competition; read-out: IC50 (nM), in vitro HLA binding affinity
Where a SMILES comes first, the peptide text is derived from it.
READOUT_TYPE: IC50

[
  {
    "MOLECULE": "CC(C)C[C@H](NC(=O)[C@@H](NC(=O)[C@H](CO)NC(=O)[C@@H](NC(=O)[C@@H](N)CC(=O)O)C(C)C)[C@@H](C)O)C(=O)N[C@@H](CC(N)=O)C(=O)N[C@@H](CC(=O)O)C(=O)N[C@@H](CCC(=O)O)C(=O)N[C@@H](Cc1ccc(O)cc1)C(=O)O [CYRPA_282] (H-DVSTLNDEY-OH)",
    "MEASUREMENT": "52200 nM"
  },
  {
    "MOLECULE": "CC(C)[C@H](NC(=O)[C@H](CC(N)=O)NC(=O)[C@H](CCCCN)NC(=O)[C@H](Cc1ccc(O)cc1)NC(=O)[C@H](CC(=O)O)NC(=O)[C@H](CCC(=O)O)NC(=O)[C@H](CC(N)=O)NC(=O)[C@@H](N)CC(N)=O)C(=O)N[C@@H](CC(=O)O)C(=O)N[C@@H](Cc1ccc(O)cc1)C(=O)O [RH5_130] (H-NNEDYKNVDY-OH)",
    "MEASUREMENT": "7990 nM"
  },
  {
    "MOLECULE": "C[C@H](N)C(=O)N[C@@H](CO)C(=O)N[C@@H](CC(=O)O)C(=O)N[C@@H](CCC(N)=O)C(=O)N1CCC[C@H]1C(=O)N[C@@H](CCCCN)C(=O)N[C@@H](CCC(N)=O)C(=O)N[C@@H](Cc1ccc(O)cc1)C(=O)N[C@@H](CCC(=O)O)C(=O)N[C@@H](CCC(N)=O)C(=O)O [AMA1_346] (H-ASDQPKQYEQ-OH)",
    "MEASUREMENT": "126000 nM"
  }
]

---

STUDY_SYSTEM: HLA-DRB1*0101 (Homo sapiens, UniProt P01903+P01911, A100R/D57E/F55L/F60I/F76Y/I96L/L162R/M171V/P40L/Q125E/R42F/V115G/Y59C)
Construct: purchased
ASSAY_REMARKS: biochemical
Assay type: binding
CONDITION_DETAILS: binding inhibition assay; NB = non-binder (no dose-dependent inhibition); read-out: DRB1*0101 IC50
pIC50: −log10 of the molar value. Where a SMILES comes first, the peptide text is derived from it.

[
  {
    "MOLECULE": "CSCC[C@H](N)C(=O)N[C@@H](CCCNC(=N)N)C(=O)N[C@@H](CCCCN)C(=O)N[C@@H](CC(C)C)C(=O)N[C@@H](Cc1ccc(O)cc1)C(=O)N[C@@H](CS)C(=O)N[C@H](C(=O)N[C@@H](CC(C)C)C(=O)N[C@@H](CC(C)C)C(=O)N[C@@H](CC(C)C)C(=O)N[C@@H](CO)C(=O)N[C@@H](C)C(=O)N[C@@H](Cc1ccccc1)C(=O)N[C@@H](CCC(=O)O)C(=O)N[C@@H](Cc1ccccc1)C(=O)N[C@H](C(=O)N[C@@H](Cc1ccc(O)cc1)C(N)=O)[C@@H](C)O)C(C)C [AMA1_001] (H-MRKLYCVLLLSAFEFTY-NH2)",
    "pIC50": 6.40
  },
  {
    "MOLECULE": "CC(=O)N[C@@H](Cc1ccccc1)C(=O)N[C@@H](CCC(N)=O)C(=O)N[C@@H](CC(N)=O)C(=O)N[C@@H](Cc1ccc(O)cc1)C(=O)N[C@H](C(=O)N[C@@H](Cc1ccc(O)cc1)C(=O)N[C@@H](CC(C)C)C(=O)N[C@@H](CO)C(=O)N[C@@H](CCCCN)C(=O)N[C@@H](CC(N)=O)C(=O)N[C@H](C(=O)N[C@H](C(=O)N[C@@H](CC(=O)O)C(=O)N[C@@H](CC(N)=O)C(=O)N[C@@H](Cc1c[nH]c2ccccc12)C(=O)N[C@@H](CCC(=O)O)C(N)=O)C(C)C)C(C)C)[C@@H](C)O [AMA1_004] (Ac-FQNYTYLSKNVVDNWE-NH2)",
    "pIC50": 7.80
  },
  {
    "MOLECULE": "CC[C@H](C)[C@H](NC(=O)[C@H](CCC(=O)O)NC(=O)[C@@H](NC(=O)[C@H](CCCCN)NC(=O)[C@H](CCCCN)NC(C)=O)C(C)C)C(=O)N[C@@H](Cc1ccccc1)C(=O)N[C@@H](CCCNC(=N)N)C(=O)N[C@@H](CO)C(=O)N[C@@H](CCCNC(=N)N)C(=O)N[C@@H](Cc1ccccc1)C(=O)N[C@@H](CO)C(=O)N[C@@H](CO)C(=O)N[C@@H](CCCCN)C(=O)N[C@@H](CC(C)C)C(=O)N[C@@H](CCC(N)=O)C(=O)N[C@@H](CS)C(=O)N[C@@H](CCC(N)=O)C(N)=O [RIPR_011] (Ac-KKVEIFRSRFSSKLQCQ-NH2)",
    "pIC50": 5.87
  },
  {
    "MOLECULE": "CC[C@H](C)[C@H](NC(=O)[C@H](CS)NC(=O)[C@H](CCC(=O)O)NC(=O)CNC(=O)[C@H](CCCNC(=N)N)NC(=O)[C@H](CO)NC(=O)[C@H](CO)NC(=O)[C@H](CCCNC(=N)N)NC(=O)[C@H](Cc1ccc(O)cc1)NC(=O)[C@H](Cc1ccc(O)cc1)NC(=O)[C@H](Cc1c[nH]cn1)NC(=O)[C@H](CCC(=O)O)NC(=O)[C@H](CCCCN)NC(C)=O)C(=O)N[C@@H](CC(C)C)C(=O)N[C@@H](CC(N)=O)C(=O)N[C@@H](CC(=O)O)C(N)=O [RIPR_017] (Ac-KEHYYRSSRGECILND-NH2)",
    "pIC50": 7.60
  }
]
